B1: CHIT1 (parent)
chain: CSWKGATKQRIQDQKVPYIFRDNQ

Variants of: B1
Assay: protein stability index of a GFP-peptide fusion (GPS, HEK-293T) (PSI 1-6); higher = more stable;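 further: lentivirally expressed fusions sorted by FACS into six bins by GFP to DsRed ratio, PSI derived from sequencing read proportions per bin multiplied by bin number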
Details: c terminus: a fixed tail appended
Each entry below carries its reported protein stability index.

Study these solved cases before continuing.
- C1A: 3.17
- I11E: 3.33
- F20Y: 2.74
- I19F: 2.08

Prompt line: protein stability index for R21G ?
Response line: 2.98
